Origin of measurements: paper PMC5028038

Molecular target: yeast plasma membrane H+-ATPase Pma1p (Saccharomyces cerevisiae)
Test: ATP hydrolysis (Baginski) assay on Pma1p in yeast plasma membranes
Description: The S. cerevisiae strain RS-72 (MATa ade1-100 his4-519 leu2-3, 112) was transformed according to the lithium acetate/single-stranded carrier DNA/polyethylene glycol method, and cultured essentially as described previously. […] ATPase activity was determined by the Baginski assay as described previously using 2–5 μg of PM protein. […] The kinetic of inhibition for DMCM was determined by monitoring the rate of ATP hydrolysis reaction in the presence of increasing ATP substrate concentration. […]
pKi: −log10 of the molar value.
property.label: pKi

compound: COc1cc(/C=C/C(=O)/C=C(O)/C=C/c2ccc(O)cc2)ccc1O [DMCM (2), demethoxycurcumin]
property.label: pKi
measured.value: 4.56

###

target: yeast plasma membrane H+-ATPase Pma1p (Saccharomyces cerevisiae, UniProt P05030); construct: made in house; host or cells: S. cerevisiae strain RS-72 (chromosomal PMA1 under GAL1 promoter, repressed on glucose), plasma membranes isolated; test: ATP hydrolysis (Baginski) assay on Pma1p in yeast plasma membranes; format: biochemical, S. cerevisiae; conditions: 5 mM ATP, pH 5.9, 30°C; 30 min preincubation; read-out: IC50, ATP hydrolysis, Pma1p
Sequence (P05030 whole entry): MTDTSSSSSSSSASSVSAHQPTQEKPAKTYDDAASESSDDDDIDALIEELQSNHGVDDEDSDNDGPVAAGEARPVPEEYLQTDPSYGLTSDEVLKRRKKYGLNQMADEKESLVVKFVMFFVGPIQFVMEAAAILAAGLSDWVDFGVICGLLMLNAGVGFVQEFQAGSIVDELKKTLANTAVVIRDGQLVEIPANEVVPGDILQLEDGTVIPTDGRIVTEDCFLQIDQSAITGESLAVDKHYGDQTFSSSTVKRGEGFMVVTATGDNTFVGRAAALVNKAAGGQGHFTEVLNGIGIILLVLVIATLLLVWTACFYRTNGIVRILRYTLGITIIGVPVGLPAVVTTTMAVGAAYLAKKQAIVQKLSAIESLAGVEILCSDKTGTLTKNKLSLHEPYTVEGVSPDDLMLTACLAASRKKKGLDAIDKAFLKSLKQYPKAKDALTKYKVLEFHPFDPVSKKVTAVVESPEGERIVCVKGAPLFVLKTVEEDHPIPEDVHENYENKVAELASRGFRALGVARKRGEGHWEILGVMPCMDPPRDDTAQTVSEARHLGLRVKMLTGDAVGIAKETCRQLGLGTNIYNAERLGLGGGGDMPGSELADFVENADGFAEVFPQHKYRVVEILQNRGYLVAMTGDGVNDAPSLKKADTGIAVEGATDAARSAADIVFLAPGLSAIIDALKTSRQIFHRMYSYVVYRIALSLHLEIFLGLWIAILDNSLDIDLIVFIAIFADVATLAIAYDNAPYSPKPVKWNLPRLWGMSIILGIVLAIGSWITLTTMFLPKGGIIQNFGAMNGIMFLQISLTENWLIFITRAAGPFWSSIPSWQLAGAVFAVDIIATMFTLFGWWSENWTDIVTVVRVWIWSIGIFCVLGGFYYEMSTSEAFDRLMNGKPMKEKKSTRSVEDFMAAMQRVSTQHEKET
pIC50: −log10 of the molar value.
property.label: pIC50

smiles.entry: O=C(/C=C(O)/C=C/c1ccc(O)cc1)/C=C/c1ccc(O)cc1
property.label: pIC50
measured.value: 4.04

###

Target: A. thaliana PM H+-ATPase isoform AHA2 (Arabidopsis thaliana)
Sequence (P19456 1-948): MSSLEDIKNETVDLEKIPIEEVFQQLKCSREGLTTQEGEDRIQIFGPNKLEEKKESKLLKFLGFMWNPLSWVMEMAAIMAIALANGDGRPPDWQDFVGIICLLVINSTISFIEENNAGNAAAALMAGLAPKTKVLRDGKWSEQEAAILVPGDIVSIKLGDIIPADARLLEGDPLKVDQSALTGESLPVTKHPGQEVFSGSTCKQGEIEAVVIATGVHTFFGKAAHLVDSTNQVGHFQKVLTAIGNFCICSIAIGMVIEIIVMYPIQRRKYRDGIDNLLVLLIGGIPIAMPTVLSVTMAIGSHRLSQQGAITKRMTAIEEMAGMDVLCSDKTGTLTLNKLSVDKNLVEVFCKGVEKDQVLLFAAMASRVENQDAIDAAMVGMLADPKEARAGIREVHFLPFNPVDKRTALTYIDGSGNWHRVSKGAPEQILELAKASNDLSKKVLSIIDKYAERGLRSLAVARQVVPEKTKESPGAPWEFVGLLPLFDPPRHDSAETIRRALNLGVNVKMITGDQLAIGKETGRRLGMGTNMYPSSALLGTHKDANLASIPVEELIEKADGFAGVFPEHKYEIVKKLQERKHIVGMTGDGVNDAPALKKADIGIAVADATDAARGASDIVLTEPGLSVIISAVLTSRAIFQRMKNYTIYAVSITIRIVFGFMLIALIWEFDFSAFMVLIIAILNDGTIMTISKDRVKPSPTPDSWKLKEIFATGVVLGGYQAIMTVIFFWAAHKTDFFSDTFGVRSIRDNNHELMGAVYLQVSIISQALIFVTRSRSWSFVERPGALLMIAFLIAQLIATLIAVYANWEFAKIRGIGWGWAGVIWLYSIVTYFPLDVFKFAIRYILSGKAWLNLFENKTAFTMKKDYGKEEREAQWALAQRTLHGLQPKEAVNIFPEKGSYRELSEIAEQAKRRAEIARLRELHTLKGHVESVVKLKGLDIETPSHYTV
Assay: ATP hydrolysis (Baginski) assay on AHA2 in yeast plasma membranes
Details: in vitro; noncompetitive model, ATP 0.125-8 mM
Experimental: The S. cerevisiae strain RS-72 (MATa ade1-100 his4-519 leu2-3, 112) was transformed according to the lithium acetate/single-stranded carrier DNA/polyethylene glycol method, and cultured essentially as described previously. […] ATPase activity was determined by the Baginski assay as described previously using 2–5 μg of PM protein. […] The kinetic of inhibition for DMCM was determined by monitoring the rate of ATP hydrolysis reaction in the presence of increasing ATP substrate concentration. […]

smiles.entry: COc1cc(/C=C/C(=O)/C=C(O)/C=C/c2ccc(O)cc2)ccc1O
target.or.system: A. thaliana PM H+-ATPase isoform AHA2 (Arabidopsis thaliana)
readout.unit: µM
Ki: 14.7
